# assayed system: T1, PolyG-1620 peptide (S-atropisomer) (not fully specified (N-terminus); printed as GGC(1620)GGGGGG-Nle)
# T1 construct: Control peptide, not of natural origin
# T1 peptide: GGC(ARS‑1620 (S-atropisomer))GGGGGG[Nle]
# procedure text: BLI, biotinylated peptide
Non-standard residues stand in square brackets, D forms with d. No end group written: not given here. *: point of attachment. ARS‑1620 (S-atropisomer) = O=C(CC*)N1CCN(c2ncnc3c(F)c(-c4c(O)cccc4F)c(Cl)cc23)CC1; Nle = CCCC[C@H](N)C(=O)O
Kd strictly under 20 nM means criterion met; at 20 nM or over means criterion not met.

Past entries and their recorded results:
Prompt: Find out if reported Kd for P1A4 Fab (Fab, V domains shown) VH: QVQLQESGGGLVQPGRSLRLSCAASGFTFSSYAMHWVRQAPGKGLEWVAVISYDGSNKYYADSVKGRFTISRDNSKNTLYLQMNSLRAEDTAVYYCARDYDWQYFDYWGQGTLVTVSS VL: QSVVTQPPSVSAAPGQEVTISCSGSSSNIGNNYVSWYQHLPGTAPKLLIYDSDKRPSGIPDRFSGSKSGTSATLGVTGLQTGDEADYYCGTWDSSLSAVMFGGGTKLTVLG is less than 20 nM
Completion: criterion not met

Prompt: Answer whether the binder P1H6 Fab (Fab, V domains shown, Fab from a human naive Fab-phage library) VH: QVQLVESGGGVVQPGRSLRLSCAASGFTFSSYAMHWVRQAPGKGLEWLASISYDGSNKFHADSVKGRFTISRDNSKSTLYLQMNSLRAEDTAVYYCVRERVPWDYDGMDVWGQGTTVTVSS VL: QSVLTQPPSVSAAPGQKVTVSCSGSSSNIGNNYVSWYQLLPGTAPKLLIYDNNKRPSGILDRFSGSKSGTSATLDITGLQTGDEADYYCGTWDSSLINVVFGGGTKVTVLS has Kd strictly less than 20 nM
Completion: criterion not met

Prompt: Dear colleague, could you confirm whether Kd of P2G5 Fab (Fab, V domains shown, Fab from a human naive Fab-phage library; also called P1C1; P1C1(P2G5)) VH: QVQLLESGGGVVQPGRSLRLSCAASGFTFSSYAMHWVRQAPGKGLEWLASISYDGSNKFHADSVKGRFTISRDNSKSTLYLQMNSLRAEDTAVYYCVRERVPWDYDGMDVWGQGTTVTVSS VL: QSVVTQPPSVSAAPGQKVTVSCSGSNSNIGDNYVSWYQLLPGTAPKLLIYDNNKRPSGILDRFSGSKSGTSATLDITGLQTGDEADYYCGTWDSSLLTVVFGGGTKLTVLG falls below 20 nM? Thanks.
Completion: criterion not met

***
Prompt: Given the entry P2F11 Fab (Fab, V domains shown, Fab from a human naive Fab-phage library) VH: DVQLVESGGGVVQPGRSLRLSCAASGFTFSNYAMHWVRQAPGKGLEWVALISYDGSNKFHADSVKGRFTISRDNSKSTLYLQMNSLRAEDTAVYYCVRERVPWDYDGMDVWGQGTTVTVSS VL: QSVLTQPPSASGTPGQRVTISCSGGNSNIKSNTVSWYRQLPGATPKLLIYKTSQRPSGVPDRFSGSKSDTSATLDIAGLQTGDEADYYCGTWDNSLSSVVFGGGTRVTVLG , would its reported Kd be below 20 nM?
Completion: criterion not met

Prompt: I'd appreciate it if you could check whether P2F10 Fab (Fab, V domains shown, Fab from a human naive Fab-phage library) VH: EVQLVESGGGVVQPGRSLRLSCAASGFTFSNYAMHWVRQAPGKGLEWVALISYDGSITYYADSVKGRFTISRDNSKDTLYLQMNSLRPEDTTLYYCARERVPYDYYGMAVWGQGTTVTVSS VL: QSVLTQPPSVSAAPGQKVTISCSGSASNIGSNHVSWYQHVPGTAPQLLIYDDKQRPSGIPDRFSGSKSGTSAALAITGLQTGDEADYYCATWDNSLASAFFGGGTKLTVLS has Kd smaller than 20 nM.
Completion: criterion met
